# assay_text: Pharmacokinetic study in rats after oral administration of A. japonica extract (LC-MS/MS of plasma)
# Format: in vivo
# condition_notes: male, Sprague-Dawley, in vivo; rat plasma, oral A. japonica extract 0.93 g kg^−1, one compartment model
measure_name: AUC(0-inf) (ng·h/mL)

[[record]]
compound = "C[C@@H]1O[C@@H](Oc2c(-c3ccc(O)c(O)c3)oc3cc(O)cc(O)c3c2=O)[C@H](O)[C@H](O)[C@H]1O [Quercetin-3-rhamnoside, quercetin-3-rhamnoside]"
assay_result = 6.95


* * *

# assay_text: Pharmacokinetic study in rats after oral administration of A. japonica extract (LC-MS/MS of plasma)
# Type: in vivo
# condition_notes: male, Sprague-Dawley, in vivo; rat plasma, oral A. japonica extract 0.93 g kg^−1, one compartment model, n = 10
measure_name: Tmax (min)

[[record]]
molecule = "C[C@@H]1O[C@@H](Oc2c(-c3ccc(O)c(O)c3)oc3cc(O)cc(O)c3c2=O)[C@H](O)[C@H](O)[C@H]1O [Quercetin-3-rhamnoside, quercetin-3-rhamnoside]"
measure_name = "Tmax"
assay_result = 30


Origin of values: paper PMC5820647
